Attribution: patent US20240299376A1

Assay: Serum and tumor levels after a single oral dose in male OCI-LY3 tumor-bearing NSG mice
Format: in vivo
Conditions: male, NSG, mouse, serum; 100 mg/kg single oral dose, PEG400 solution, 2 h post dose; mean (SD)
MEASURED PROPERTY: concentration at 2 h (ng/mL)
Return type: number; implicit unit ng/mL.

Briefly, concentration at 2 h measured for O=C(Nc1ccnc(C(F)(F)F)c1)c1cnn(-c2cccc3c(=O)[nH]ccc23)c1C(F)(F)F [Compound A] : 3730

---

Assay: Single oral dose plasma PK in fasted dogs
Type: in vivo, dog
Conditions: male, beagle, dog, plasma, po, 20 mg/kg, 3M, 20 mg/kg PO, -ZAF salt nanosuspension (HPMC:DOSS suspension), Study 5
MEASURED PROPERTY: Tmax (h)
The reply should be a number in h, with the unit left off.

// Tmax value for `O=C(Nc1ccnc(C(F)(F)F)c1)c1cnn(-c2cccc3c(=O)[nH]ccc23)c1C(F)(F)F` : 9

---

Test: FIH study 67856633LYM1001 plasma pharmacokinetics
Assay type: in vivo, human
Settings: human, plasma, oral, 400 mg, Cycle 2 Day 1, 200 mg capsule, cohort 2 × 200 mg; mean; read-out: Cmax
MEASURED PROPERTY: Cmax (ng/mL)
Please give a number only; it is taken to be in ng/mL.

Record summary for `O=C(Nc1ccnc(C(F)(F)F)c1)c1cnn(-c2cccc3c(=O)[nH]ccc23)c1C(F)(F)F` : reported Cmax = 43200

---

Assay: Single oral dose plasma PK in fasted dogs
Format: in vivo, dog
Settings: male, beagle, dog, plasma, po, 5 mg/kg, 3M, 5 mg/kg PO, -ZAF salt nanosuspension (HPMC:DOSS suspension), Study 5
MEASURED PROPERTY: AUC(0-inf)
Please answer using the number first and the unit second.

Input `O=C(Nc1ccnc(C(F)(F)F)c1)c1cnn(-c2cccc3c(=O)[nH]ccc23)c1C(F)(F)F` . Output AUC(0-inf): 26400 ng·h/mL

---

Test: 14-day oral toxicity study toxicokinetics in Sprague-Dawley rats
Type: in vivo
Conditions: female, rat, plasma, 1000 mg/kg/day, female, Day 0, 1,000 mg/kg/day, mean, read-out: AUC0-24 h
MEASURED PROPERTY: AUC(0-t) (µg·h/mL)
Field format: number, assumed µg·h/mL, no unit text.

Reported AUC(0-t) ( `O=C(Nc1ccnc(C(F)(F)F)c1)c1cnn(-c2cccc3c(=O)[nH]ccc23)c1C(F)(F)F` ) = 1140

---

Experiment: Single oral dose plasma PK in fasted dogs
Type: in vivo, dog
Conditions: male, beagle, dog, plasma, po, 20 mg/kg, 20 mg/kg PO, 0.5% HPMC suspension, Study 2, N = 1 animal with low exposure
MEASURED PROPERTY: AUC(0-inf) (ng·h/mL)
The answer is to be given in ng·h/mL; state only the numeric part.

The reported AUC(0-inf) of the molecule O=C(Nc1ccnc(C(F)(F)F)c1)c1cnn(-c2cccc3c(=O)[nH]ccc23)c1C(F)(F)F [Compound A] was 15600

---

Experiment: Single oral dose plasma PK in fasted dogs
Type: in vivo, dog
Conditions: male, beagle, dog, plasma, po, 20 mg/kg, 3M, 20 mg/kg PO, 0.5% HPMC suspension, Study 2
MEASURED PROPERTY: Cmax
Number first, unit second: that is the form wanted.

Note to self: Cmax recorded for `O=C(Nc1ccnc(C(F)(F)F)c1)c1cnn(-c2cccc3c(=O)[nH]ccc23)c1C(F)(F)F` was 4010 ng/mL

---

Assay: Serum and tumor levels after multiple oral doses in male OCI-LY3 tumor-bearing NSG mice
Type: in vivo
Conditions: male, NSG, mouse, serum, oral, 30 mg/kg, 30 mg/kg twice daily PO, Day 1 following first dose, 7 h post dose; mean (SD)
MEASURED PROPERTY: concentration at 7 h (ng/mL)
The reply should contain only the number, in ng/mL.

response.value for O=C(Nc1ccnc(C(F)(F)F)c1)c1cnn(-c2cccc3c(=O)[nH]ccc23)c1C(F)(F)F [Compound A] (field: concentration at 7 h) = 9970

---

Test: Serum concentration after 28 days of oral dosing in male OCI-LY3 tumor-bearing NSG mice
Format: in vivo
Conditions: mouse, 10 mg/kg BID PO 28 days, 0.25 h post last dose, mean
MEASURED PROPERTY: concentration at 0.25 h (ng/mL)
The answer is to be given in ng/mL; state only the numeric part.

Reported concentration at 0.25 h ( O=C(Nc1ccnc(C(F)(F)F)c1)c1cnn(-c2cccc3c(=O)[nH]ccc23)c1C(F)(F)F [Compound A] ) = 4050

---

Assay: Single oral dose plasma PK in fasted dogs
Format: in vivo, dog
Details: male, beagle, dog, plasma, po, 20 mg/kg, 3M, 20 mg/kg PO, 100% PEG400 solution, Study 3
MEASURED PROPERTY: Cmax (ng/mL)
I only need the number, in ng/mL, no unit after it.

# Cmax (molecule: `O=C(Nc1ccnc(C(F)(F)F)c1)c1cnn(-c2cccc3c(=O)[nH]ccc23)c1C(F)(F)F` ) is 5770

---

System: OCI-LY3 (Myd88/CARD11 A20 mut)
Experiment: Anti-proliferative activity, DLBCL cell line panel
Assay type: cell-based
Details: Homo sapiens, OCI-Ly3, 192 h; antiproliferation after 8 days of treatment
MEASURED PROPERTY: pIC50
# pIC50: negative log10 of molar concentration; output just the value

Quick note, pIC50 for `O=C(Nc1ccnc(C(F)(F)F)c1)c1cnn(-c2cccc3c(=O)[nH]ccc23)c1C(F)(F)F` landed at 6.30

---

Experiment: Single oral dose plasma PK in fasted dogs
Assay type: in vivo, dog
Details: male, beagle, dog, plasma, po, 22.5 mg/kg, 3M, 22.5 mg/kg PO, PEG400/PVP VA 90:10 solution, Study 6
MEASURED PROPERTY: Cmax (ng/mL)
// units = ng/mL; emit number, no label

Input `O=C(Nc1ccnc(C(F)(F)F)c1)c1cnn(-c2cccc3c(=O)[nH]ccc23)c1C(F)(F)F` . Output Cmax: 21000

---

Test: FIH study 67856633LYM1001 plasma pharmacokinetics
Assay type: in vivo, human
Settings: human, plasma, oral, 50 mg, Cycle 2 Day 1, 50 mg capsule, cohort 50 mg; mean; read-out: Cmax
Excerpt: The study consists of a dose escalation phase (Part 1), to determine the recommended Phase 2 dose(s) (RP2D[s]), followed by an expansion phase at the RP2D(s) (Part 2). The dose escalation phase is supported using an adaptive dose escalation strategy guided by the modified continual reassessment method (mCRM) based on a Bayesian Logistic Regression Model (BLRM) with escalation with overdose control (EWOC) principle. […]
MEASURED PROPERTY: Cmax
Please answer using the number first and the unit second.

Sure, the documented Cmax for `O=C(Nc1ccnc(C(F)(F)F)c1)c1cnn(-c2cccc3c(=O)[nH]ccc23)c1C(F)(F)F` is 8740 ng/mL

---

Assay: Single IV dose plasma PK
Format: in vivo, mouse
Settings: male, plasma; Mouse, CD-1, 3M, 1 mg/kg IV in 70% PEG400; mean; read-out: Vdss
MEASURED PROPERTY: Vd (L/kg)
Note: unit L/kg is implicit; provide only the numeric part.

Short answer for O=C(Nc1ccnc(C(F)(F)F)c1)c1cnn(-c2cccc3c(=O)[nH]ccc23)c1C(F)(F)F [Compound A] : Vd was 1.4

---

Test: FIH study 67856633LYM1001 plasma pharmacokinetics
Format: in vivo, human
Conditions: human, plasma, oral, 300 mg, Cycle 2 Day 1, 50 mg capsule, cohort 6 × 50 mg (300 mg QD); median; read-out: Tmax
MEASURED PROPERTY: Tmax

Entry `O=C(Nc1ccnc(C(F)(F)F)c1)c1cnn(-c2cccc3c(=O)[nH]ccc23)c1C(F)(F)F` ; Tmax = ~4 h

---

Experiment: Preliminary food effect assessment at steady state
Type: in vivo, human
Conditions: human, plasma, oral, 200 mg, 4 × 50 mg, fed condition, steady state; N = 1; read-out: Cmax
MEASURED PROPERTY: Cmax

Item: O=C(Nc1ccnc(C(F)(F)F)c1)c1cnn(-c2cccc3c(=O)[nH]ccc23)c1C(F)(F)F [Compound A] | Cmax: 48400 ng/mL

---

Test: 14-day oral toxicity study toxicokinetics in Sprague-Dawley rats
Type: in vivo
Details: male, rat, plasma, 200 mg/kg/day, male, Day 0, 200 mg/kg/day, range
MEASURED PROPERTY: Tmax

The recorded Tmax for `O=C(Nc1ccnc(C(F)(F)F)c1)c1cnn(-c2cccc3c(=O)[nH]ccc23)c1C(F)(F)F` is 7 to 9 h

---

Test: 14-day oral toxicity study toxicokinetics in Sprague-Dawley rats
Type: in vivo
Settings: male, rat, plasma, 200 mg/kg/day, male, Day 13, 200 mg/kg/day, range
MEASURED PROPERTY: Tmax

// sample O=C(Nc1ccnc(C(F)(F)F)c1)c1cnn(-c2cccc3c(=O)[nH]ccc23)c1C(F)(F)F [Compound A] , its Tmax was 2 to 7 h
